Molecular target: hHDAC6 (Homo sapiens (Human))
Experiment: HDAC6 inhibition protocol
Settings: read-out: IC50 (nM) of enzyme activity HDAC6; selectivity table
Listed here: items and their measured log10 of IC50.
parameter: log10 of IC50 (log10 of the value in nM)

- compound: "Fc1ccccc1-c1cn(Cc2ccc(-c3nnc(C(F)F)o3)cn2)nn1 [Example 48]"
  parameter: "log10 of IC50"
  number: 1.38
- compound: "FC(F)c1nnc(-c2ccc(Cn3cc(-c4ccccc4)nn3)cc2)o1 [Example 27]"
  parameter: "log10 of IC50"
  number: 1.93
- compound: "FC(F)c1nnc(-c2ccc(Cn3nc4cc(Cl)c(Cl)cc4n3)nc2)o1 [Example 25]"
  parameter: "log10 of IC50"
  number: 1.47
- compound: "FC(F)c1nnc(-c2ccc(Cn3nnc4ccccc43)cc2)o1 [Example 11]"
  parameter: "log10 of IC50"
  number: 2.23
- compound: "FC(F)c1nnc(-c2ccc(Cn3nnc(-c4cccc(Cl)c4)c3Cl)nc2)o1 [Example 54]"
  parameter: "log10 of IC50"
  number: 1.53
- compound: "FC(F)c1nnc(-c2ccc(Cn3nnc4cc(Cl)c(Cl)cc43)nc2)o1 [Example 24]"
  parameter: "log10 of IC50"
  number: 1.47
- compound: "FC(F)c1nnc(-c2ccc(Cn3cc4ccccc4n3)cc2)o1 [Example 7]"
  parameter: "log10 of IC50"
  number: 2.56
- compound: "FC(F)c1nnc(-c2ccc(Cn3cnc4cc(Cl)c(Cl)cc43)nc2)o1 [Example 22]"
  parameter: "log10 of IC50"
  number: 1.35

====

Target: hHDAC6 (Homo sapiens (Human), UniProt Q9UBN7)
Sequence (Q9UBN7 whole entry): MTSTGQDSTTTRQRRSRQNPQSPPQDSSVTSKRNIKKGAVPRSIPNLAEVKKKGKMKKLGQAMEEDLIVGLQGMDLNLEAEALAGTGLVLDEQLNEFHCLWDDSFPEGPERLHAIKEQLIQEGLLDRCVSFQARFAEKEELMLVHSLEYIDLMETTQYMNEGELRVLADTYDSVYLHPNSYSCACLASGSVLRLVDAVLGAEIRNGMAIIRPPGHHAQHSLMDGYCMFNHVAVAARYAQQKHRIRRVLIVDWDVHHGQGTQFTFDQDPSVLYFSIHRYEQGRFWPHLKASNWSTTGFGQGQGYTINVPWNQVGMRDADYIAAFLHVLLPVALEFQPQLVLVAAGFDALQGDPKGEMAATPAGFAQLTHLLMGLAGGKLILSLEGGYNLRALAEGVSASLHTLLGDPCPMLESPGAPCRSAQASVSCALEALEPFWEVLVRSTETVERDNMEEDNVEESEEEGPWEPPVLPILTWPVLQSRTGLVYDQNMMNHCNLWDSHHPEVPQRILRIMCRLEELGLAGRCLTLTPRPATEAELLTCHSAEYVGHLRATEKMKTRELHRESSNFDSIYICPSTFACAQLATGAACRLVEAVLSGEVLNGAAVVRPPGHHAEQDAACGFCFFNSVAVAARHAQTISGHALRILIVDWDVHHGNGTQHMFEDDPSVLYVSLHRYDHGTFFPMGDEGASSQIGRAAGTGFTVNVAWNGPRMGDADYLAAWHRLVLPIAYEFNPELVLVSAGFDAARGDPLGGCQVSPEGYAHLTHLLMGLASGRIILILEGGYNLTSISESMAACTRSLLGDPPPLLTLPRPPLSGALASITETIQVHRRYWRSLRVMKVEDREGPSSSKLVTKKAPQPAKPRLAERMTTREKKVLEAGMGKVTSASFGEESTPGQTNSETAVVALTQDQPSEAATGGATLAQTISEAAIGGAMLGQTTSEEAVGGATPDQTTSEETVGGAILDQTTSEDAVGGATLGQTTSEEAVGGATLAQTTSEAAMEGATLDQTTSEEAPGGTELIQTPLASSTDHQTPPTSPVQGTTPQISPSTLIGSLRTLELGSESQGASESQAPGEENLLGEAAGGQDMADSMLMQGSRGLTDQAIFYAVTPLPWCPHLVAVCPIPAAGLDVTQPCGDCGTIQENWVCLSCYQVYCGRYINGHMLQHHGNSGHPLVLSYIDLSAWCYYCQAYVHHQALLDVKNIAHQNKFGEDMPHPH
Assay: HDAC6 inhibition protocol
Conditions: read-out: IC50 (nM) of enzyme activity HDAC6; hHDAC6 1.20 nM, Acetylated Peptide A 2 μM, 1 hour at RT
parameter: log10 IC50 (log10 of the value in nM)

- molecule: "CC(c1ccc(-c2nnc(C(F)F)o2)cc1)n1cc(-c2ccccc2)nn1 (stereo not drawn)"
  tested.system: "hHDAC6 (Homo sapiens (Human), UniProt Q9UBN7)"
  number: 2.17
- molecule: "O=C1c2ccccc2C(=O)N1Cc1ccc(-c2nnc(C(F)F)o2)cc1"
  tested.system: "hHDAC6 (Homo sapiens (Human), UniProt Q9UBN7)"
  number: 2.41
- molecule: "FC(F)c1nnc(-c2ccc(Cn3cc(-c4ccccc4)nn3)cc2)o1"
  tested.system: "hHDAC6 (Homo sapiens (Human), UniProt Q9UBN7)"
  number: 1.93
- molecule: "Cc1cccc2nnn(Cc3ccc(-c4nnc(C(F)F)o4)cc3)c12"
  tested.system: "hHDAC6 (Homo sapiens (Human), UniProt Q9UBN7)"
  number: 2.28
- molecule: "FC(F)c1nnc(-c2ccc(Cn3nnc4ccccc43)cc2)o1"
  tested.system: "hHDAC6 (Homo sapiens (Human), UniProt Q9UBN7)"
  number: 2.23
- molecule: "FC(F)c1nnc(-c2ccc(Cn3cc(-c4ccccc4Cl)nn3)nc2)o1"
  tested.system: "hHDAC6 (Homo sapiens (Human), UniProt Q9UBN7)"
  number: 1.57
- molecule: "Cc1nnn(Cc2ccc(-c3nnc(C(F)F)o3)cc2)c1-c1ccccc1"
  tested.system: "hHDAC6 (Homo sapiens (Human), UniProt Q9UBN7)"
  number: 2.84
- molecule: "CC1(C)C(=O)N(Cc2ccc(-c3nnc(C(F)F)o3)cc2)c2ccccc21"
  tested.system: "hHDAC6 (Homo sapiens (Human), UniProt Q9UBN7)"
  number: 2.33
- molecule: "FC(F)c1nnc(-c2ccc(Cn3cc(-c4ccc(C(F)(F)F)cc4)nn3)cc2)o1"
  tested.system: "hHDAC6 (Homo sapiens (Human), UniProt Q9UBN7)"
  number: 2.38
- molecule: "FC(F)c1nnc(-c2ccc(Cn3cnc4ccc(Br)cc43)nc2)o1"
  tested.system: "hHDAC6 (Homo sapiens (Human), UniProt Q9UBN7)"
  number: 1.79
- molecule: "FC(F)c1nnc(-c2ccc(Cn3nnc4ccc(Br)cc43)nc2)o1"
  tested.system: "hHDAC6 (Homo sapiens (Human), UniProt Q9UBN7)"
  number: 1.61
- molecule: "FC(F)c1nnc(-c2ccc(Cn3cnc4cc(Br)ccc43)nc2)o1"
  tested.system: "hHDAC6 (Homo sapiens (Human), UniProt Q9UBN7)"
  number: 1.68
- molecule: "FC(F)c1nnc(-c2ccc(Cn3nnc(-c4ccccc4)c3Cl)cc2)o1"
  tested.system: "hHDAC6 (Homo sapiens (Human), UniProt Q9UBN7)"
  number: 1.94
- molecule: "Cc1cc2nnn(Cc3ccc(-c4nnc(C(F)F)o4)cn3)c2cc1C"
  tested.system: "hHDAC6 (Homo sapiens (Human), UniProt Q9UBN7)"
  number: 1.93
- molecule: "Fc1cc(-c2cn(Cc3ccc(-c4nnc(C(F)F)o4)cn3)nn2)cc(F)c1F"
  tested.system: "hHDAC6 (Homo sapiens (Human), UniProt Q9UBN7)"
  number: 2.17

====

Target: hHDAC6 (Homo sapiens (Human), UniProt Q9UBN7)
Test: HDAC6 inhibition protocol
Settings: read-out: IC50 (nM) of enzyme activity HDAC6; hHDAC6 1.20 nM, Acetylated Peptide A 2 μM, 1 hour at RT
Listed here: items and their measured IC50.
parameter: IC50 (nM)

- compound: "FC(F)c1nnc(-c2ccc(Cn3ncc4ccccc43)cc2)o1"
  parameter: "IC50"
  number: 417
- compound: "Fc1ccccc1-c1cn(Cc2ccc(-c3nnc(C(F)F)o3)cn2)nn1"
  parameter: "IC50"
  number: 24
- compound: "FC(F)c1nnc(-c2ccc(Cn3cc4ccccc4n3)cc2)o1"
  parameter: "IC50"
  number: 365
- compound: "Fc1cccc(F)c1-c1cn(Cc2ccc(-c3nnc(C(F)F)o3)cn2)nn1"
  parameter: "IC50"
  number: 66.7
- compound: "CC(c1ccc(-c2nnc(C(F)F)o2)cc1)n1cnc2ccccc21 (centres unmarked)"
  parameter: "IC50"
  number: 589

====

Listed here: items and their measured IC50.
Molecular target: UniProt Q9UKV0
Sequence (Q9UKV0 whole entry): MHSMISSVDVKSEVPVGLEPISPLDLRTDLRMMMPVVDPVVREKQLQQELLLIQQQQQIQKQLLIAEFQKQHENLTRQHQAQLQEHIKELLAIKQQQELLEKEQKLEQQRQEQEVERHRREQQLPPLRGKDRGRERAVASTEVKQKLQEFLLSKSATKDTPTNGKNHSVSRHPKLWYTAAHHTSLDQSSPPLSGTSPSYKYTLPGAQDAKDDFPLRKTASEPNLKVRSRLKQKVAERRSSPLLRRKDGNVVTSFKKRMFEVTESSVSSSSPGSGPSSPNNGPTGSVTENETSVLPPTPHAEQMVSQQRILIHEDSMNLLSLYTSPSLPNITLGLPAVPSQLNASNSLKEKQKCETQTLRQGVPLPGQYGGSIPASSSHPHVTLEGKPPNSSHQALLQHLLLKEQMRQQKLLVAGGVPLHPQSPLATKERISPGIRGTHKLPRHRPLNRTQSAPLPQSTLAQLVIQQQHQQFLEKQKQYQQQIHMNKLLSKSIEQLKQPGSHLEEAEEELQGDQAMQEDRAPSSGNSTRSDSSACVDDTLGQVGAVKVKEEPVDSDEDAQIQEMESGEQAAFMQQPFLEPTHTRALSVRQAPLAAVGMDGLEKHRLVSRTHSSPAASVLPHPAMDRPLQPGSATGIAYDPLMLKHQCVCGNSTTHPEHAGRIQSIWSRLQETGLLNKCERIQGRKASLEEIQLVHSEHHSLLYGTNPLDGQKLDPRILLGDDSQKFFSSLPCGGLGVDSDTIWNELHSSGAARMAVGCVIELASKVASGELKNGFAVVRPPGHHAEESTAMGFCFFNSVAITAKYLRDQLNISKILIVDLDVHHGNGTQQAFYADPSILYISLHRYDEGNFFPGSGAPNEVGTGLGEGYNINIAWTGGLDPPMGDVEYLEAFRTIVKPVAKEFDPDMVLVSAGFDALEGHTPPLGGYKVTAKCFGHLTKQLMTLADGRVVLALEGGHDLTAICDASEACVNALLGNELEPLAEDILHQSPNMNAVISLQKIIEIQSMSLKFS
Test: hHDAC9 inhibition protocol
Settings: read-out: IC50 (nM) of enzyme activity HDAC9; selectivity table

- compound: "FC(F)c1nnc(-c2ccc(Cn3nnc(-c4cccc(Cl)c4)c3Cl)nc2)o1 [Example 54]"
  IC50: "2610 nM"
- compound: "Fc1ccccc1-c1cn(Cc2ccc(-c3nnc(C(F)F)o3)cn2)nn1 [Example 48]"
  IC50: "> 10000 nM"
- compound: "FC(F)c1nnc(-c2ccc(Cn3cc4ccccc4n3)cc2)o1 [Example 7]"
  IC50: "> 10000 nM"
- compound: "FC(F)c1nnc(-c2ccc(Cn3nnc4cc(Cl)c(Cl)cc43)nc2)o1 [Example 24]"
  IC50: "8620 nM"
- compound: "FC(F)c1nnc(-c2ccc(Cn3cc(-c4ccccc4)nn3)cc2)o1 [Example 27]"
  IC50: "> 10000 nM"
- compound: "FC(F)c1nnc(-c2ccc(Cn3cnc4cc(Cl)c(Cl)cc43)nc2)o1 [Example 22]"
  IC50: "6520 nM"
- compound: "FC(F)c1nnc(-c2ccc(Cn3nc4cc(Cl)c(Cl)cc4n3)nc2)o1 [Example 25]"
  IC50: "> 10000 nM"
- compound: "FC(F)c1nnc(-c2ccc(Cn3nnc4ccccc43)cc2)o1 [Example 11]"
  IC50: "> 10000 nM"

====

Biological target: hHDAC6 (Homo sapiens (Human))
Assay: HDAC6 inhibition protocol
Conditions: read-out: IC50 (nM) of enzyme activity HDAC6; hHDAC6 1.20 nM, Acetylated Peptide A 2 μM, 1 hour at RT

- smiles.input: "FC(F)c1nnc(-c2ccc(Cn3cc(-c4cccnc4)nn3)cc2)o1"
  IC50, nM: 202
- smiles.input: "FC(F)c1nnc(-c2ccc(Cn3c(C(F)(F)F)nc4cc(Cl)c(Cl)cc43)nc2)o1"
  IC50, nM: 121
- smiles.input: "FC(F)c1nnc(-c2ccc(Cn3nnc4ccccc43)nc2)o1"
  IC50, nM: 103
- smiles.input: "Cc1cc2ncn(Cc3ccc(-c4nnc(C(F)F)o4)cn3)c2cc1C"
  IC50, nM: 187

====

Listed here: items and their measured log10 of IC50.
Molecular target: hHDAC6 (Homo sapiens (Human), UniProt Q9UBN7)
Test: HDAC6 inhibition protocol
Details: read-out: IC50 (nM) of enzyme activity HDAC6; hHDAC6 1.20 nM, Acetylated Peptide A 2 μM, 1 hour at RT
parameter: log10 of IC50 (log10 of the value in nM)

- compound: "FC(F)c1nnc(-c2ccc(Cn3nnc4cccnc43)nc2)o1"
  tested.system: "hHDAC6 (Homo sapiens (Human), UniProt Q9UBN7)"
  log10 of IC50: 2.28
- compound: "FC(F)c1nnc(-c2ccc(Cn3nnc4ccc(Cl)cc43)cc2)o1"
  tested.system: "hHDAC6 (Homo sapiens (Human), UniProt Q9UBN7)"
  log10 of IC50: 2.11
- compound: "FC(F)c1nnc(-c2ccc(Cn3ccc4cccnc43)cc2)o1"
  tested.system: "hHDAC6 (Homo sapiens (Human), UniProt Q9UBN7)"
  log10 of IC50: 3.25
- compound: "FC(F)c1nnc(-c2ccc(Cn3ccc4cnccc43)cc2)o1"
  tested.system: "hHDAC6 (Homo sapiens (Human), UniProt Q9UBN7)"
  log10 of IC50: 3.69
- compound: "COc1cccc(-c2cn(Cc3ccc(-c4nnc(C(F)F)o4)cn3)nn2)c1"
  tested.system: "hHDAC6 (Homo sapiens (Human), UniProt Q9UBN7)"
  log10 of IC50: 1.64
- compound: "Cc1c(-c2ccccc2)nnn1Cc1ccc(-c2nnc(C(F)F)o2)cc1"
  tested.system: "hHDAC6 (Homo sapiens (Human), UniProt Q9UBN7)"
  log10 of IC50: 2.56
- compound: "FC(F)c1nnc(-c2ccc(Cn3cc(-c4ccncc4)nn3)cc2)o1"
  tested.system: "hHDAC6 (Homo sapiens (Human), UniProt Q9UBN7)"
  log10 of IC50: 2.27
- compound: "FC(F)c1nnc(-c2ccc(Cn3ccc4ncccc43)cc2)o1"
  tested.system: "hHDAC6 (Homo sapiens (Human), UniProt Q9UBN7)"
  log10 of IC50: 3.02
- compound: "FC(F)c1nnc(-c2ccc(C(Cl)n3cc(-c4ccccc4)nn3)nc2)o1 (centres unmarked)"
  tested.system: "hHDAC6 (Homo sapiens (Human), UniProt Q9UBN7)"
  log10 of IC50: 1.76
- compound: "FC(F)c1nnc(-c2ccc(Cn3cc(C4CCCCC4)nn3)cc2)o1"
  tested.system: "hHDAC6 (Homo sapiens (Human), UniProt Q9UBN7)"
  log10 of IC50: 2.68
- compound: "FC(F)c1nnc(-c2ccc(Cn3cnc4cc(Cl)c(Cl)cc43)cc2)o1"
  tested.system: "hHDAC6 (Homo sapiens (Human), UniProt Q9UBN7)"
  log10 of IC50: 1.78
- compound: "FC(F)c1nnc(-c2ccc(Cn3nnnc3-c3ccccc3)cc2)o1"
  tested.system: "hHDAC6 (Homo sapiens (Human), UniProt Q9UBN7)"
  log10 of IC50: 2.96
- compound: "O=c1n(-c2ccccc2)cnn1Cc1ccc(-c2nnc(C(F)F)o2)cc1"
  tested.system: "hHDAC6 (Homo sapiens (Human), UniProt Q9UBN7)"
  log10 of IC50: 3.06
- compound: "FC(F)c1nnc(-c2ccc(Cn3cc(-c4cccs4)nn3)cc2)o1"
  tested.system: "hHDAC6 (Homo sapiens (Human), UniProt Q9UBN7)"
  log10 of IC50: 2.02
- compound: "FC(F)c1nnc(-c2ccc(Cn3nc4cc(Cl)c(Cl)cc4n3)nc2)o1"
  tested.system: "hHDAC6 (Homo sapiens (Human), UniProt Q9UBN7)"
  log10 of IC50: 1.47
- compound: "FC(F)c1nnc(-c2ccc(Cn3nnc4cc(Cl)c(Cl)cc43)nc2)o1"
  tested.system: "hHDAC6 (Homo sapiens (Human), UniProt Q9UBN7)"
  log10 of IC50: 1.47
- compound: "FC(F)c1nnc(-c2ccc(Cn3cc(-c4ccccc4)nn3)cn2)o1"
  tested.system: "hHDAC6 (Homo sapiens (Human), UniProt Q9UBN7)"
  log10 of IC50: 3.30
- compound: "Fc1ccccc1-c1nnn(Cc2ccc(-c3nnc(C(F)F)o3)cn2)c1Cl"
  tested.system: "hHDAC6 (Homo sapiens (Human), UniProt Q9UBN7)"
  log10 of IC50: 1.83
- compound: "FC(F)c1nnc(-c2ccc(Cn3nnc(-c4ccccc4Cl)c3Cl)nc2)o1"
  tested.system: "hHDAC6 (Homo sapiens (Human), UniProt Q9UBN7)"
  log10 of IC50: 1.91
- compound: "FC(F)c1nnc(-c2ccc(Cn3cc(-c4ccc(Cl)c(Cl)c4)nn3)nc2)o1"
  tested.system: "hHDAC6 (Homo sapiens (Human), UniProt Q9UBN7)"
  log10 of IC50: 1.58
- compound: "FC(F)c1nnc(-c2ccc(Cn3cc(-c4ccc(Cl)cc4)nn3)nc2)o1"
  tested.system: "hHDAC6 (Homo sapiens (Human), UniProt Q9UBN7)"
  log10 of IC50: 1.63
- compound: "FC(F)c1nnc(-c2ccc(Cn3ccc4ccccc43)cc2)o1"
  tested.system: "hHDAC6 (Homo sapiens (Human), UniProt Q9UBN7)"
  log10 of IC50: 3.48
- compound: "FC(F)c1nnc(-c2ccc(Cn3cc(-c4ccsc4)nn3)cc2)o1"
  tested.system: "hHDAC6 (Homo sapiens (Human), UniProt Q9UBN7)"
  log10 of IC50: 2.12
- compound: "FC(F)c1nnc(-c2ccc(Cn3cnc4cc(Cl)c(Cl)cc43)nc2)o1"
  tested.system: "hHDAC6 (Homo sapiens (Human), UniProt Q9UBN7)"
  log10 of IC50: 1.35
- compound: "FC(F)c1nnc(-c2ccc(Cn3nnc(-c4cccc(Cl)c4)c3Cl)nc2)o1"
  tested.system: "hHDAC6 (Homo sapiens (Human), UniProt Q9UBN7)"
  log10 of IC50: 1.53
- compound: "FC(F)c1nnc(-c2ccc(Cn3cnc4ccccc43)cc2)o1"
  tested.system: "hHDAC6 (Homo sapiens (Human), UniProt Q9UBN7)"
  log10 of IC50: 2.59
- compound: "CC(C)(C)c1cn(Cc2ccc(-c3nnc(C(F)F)o3)cc2)nn1"
  tested.system: "hHDAC6 (Homo sapiens (Human), UniProt Q9UBN7)"
  log10 of IC50: 2.44
- compound: "Cc1nc2cc(Cl)c(Cl)cc2n1Cc1ccc(-c2nnc(C(F)F)o2)cn1"
  tested.system: "hHDAC6 (Homo sapiens (Human), UniProt Q9UBN7)"
  log10 of IC50: 1.63
- compound: "FC(F)c1nnc(-c2ccc(Cn3nnc(-c4ccccc4)c3Cl)nc2)o1"
  tested.system: "hHDAC6 (Homo sapiens (Human), UniProt Q9UBN7)"
  log10 of IC50: 1.68
